- Test system: Botrytis cinerea
- testName: Fungicidal activity against Botryotinia fuckeliana assessed as inhibition of mycelial growth
- Assay type: functional, organism-based
EC50 under 2 µg/mL gets Fulfilled, anything at or over 2 µg/mL gets Not fulfilled.

Determine if O=S(=O)(Nc1ccc(Br)cc1)C1CCCCC1O (stereo unspecified) shows EC50 strictly lower than 2 µg/mL.
Not fulfilled

Then Cc1cc(F)ccc1NS(=O)(=O)C1CCCCC1O (stereo unspecified) ?
Not fulfilled

What do you get for O=C1CCCCCCC1S(=O)(=O)Nc1ccc(Cl)cc1C(F)(F)F (stereo unspecified) ?
Fulfilled

Try this molecule next: O=C1CCCC1S(=O)(=O)Nc1ccc(Cl)cc1C(F)(F)F (stereo unspecified)
Not fulfilled

// same read-out, input: O=S(=O)(Nc1ccc(Cl)c(Cl)c1)C1CCCCC1O (stereo unspecified)
Not fulfilled

Same lookup for O=S(=O)(Nc1ccc(Cl)cc1Cl)C1CCCCC1O (stereo unspecified) , please.
Not fulfilled

---

Provide the reported Efficacy of each item.
- Test system: Botrytis cinerea
- testName: Fungicidal activity against Botryotinia fuckeliana grown on compound pre-treated cucumber leaves assessed as control efficiency against gray mold disease on leaves at 500 ug/mL
- Format: functional
Give your result in % as a bare value.

Using the record for O=S(=O)(Nc1ccc(Cl)cc1C(F)(F)F)C1CCCCCCCCCCC1O (stereo unspecified) , report its Efficacy.
26.06

Also O=C1CCCCC1S(=O)(=O)Nc1ccc(Cl)cc1C(F)(F)F (stereo unspecified) ?
28.99

Follow-up item: CC12CC1(C)C(=O)N(c1cc(Cl)cc(Cl)c1)C2=O (stereo unspecified)
91.78

Can you check O=S(=O)(Nc1ccc(Cl)cc1C(F)(F)F)C1CCCCC1O (stereo unspecified) next?
93.54

Next compound up: O=C1CCCC1S(=O)(=O)Nc1ccc(Cl)cc1C(F)(F)F (stereo unspecified)
74.77

Then this compound: O=S(=O)(Nc1ccc(Cl)cc1C(F)(F)F)C1CCCCCCC1O (stereo unspecified)
94.42

---

- System: Botrytis cinerea
- testName: Fungicidal activity against Botryotinia fuckeliana assessed as inhibition of mycelial growth
- Type: functional, organism-based
observedProperty: EC50

Would you kindly share the measured EC50 for O=S(=O)(Nc1ccc(Cl)cc1C(F)(F)F)C1CCCC1O (configuration not stated) ?
36.4 µg/mL

Let us now turn to O=S(=O)(Nc1ccc(C(F)(F)F)cc1)C1CCCCC1O (configuration not stated)
8.79 µg/mL

Let us now turn to CCc1cccc(C)c1NS(=O)(=O)C1CCCCC1O (configuration not stated)
105 µg/mL

Would you mind doing O=S(=O)(Nc1ccccc1Br)C1CCCCC1O (configuration not stated) as well?
11 µg/mL

Same question for O=S(=O)(Nc1cc(C(F)(F)F)cc(C(F)(F)F)c1)C1CCCCC1O (configuration not stated) please.
4.44 µg/mL

Then what about the molecule O=S(=O)(Nc1ccc(Cl)cc1C(F)(F)F)C1CCCCC1O (configuration not stated) ?
3.37 µg/mL

Now the molecule O=S(=O)(Nc1ccccc1)C1CCCCC1O (configuration not stated)
22.9 µg/mL

What do we get for O=C1CCCCC1S(=O)(=O)Nc1ccc(Cl)cc1C(F)(F)F (configuration not stated) ?
2.16 µg/mL

Now this one: O=S(=O)(Nc1ccc(Cl)cc1C(F)(F)F)C1CCCCCCC1O (configuration not stated)
1.09 µg/mL

Would you mind doing O=S(=O)(Nc1ccc(Cl)cc1C(F)(F)F)C1CCCCCC1O (configuration not stated) as well?
0.85 µg/mL

Another molecule to look at: O=S(=O)(Nc1ccc(Cl)cc1)C1CCCCC1O (configuration not stated)
7.38 µg/mL

Another molecule to look at: Cc1ccc(NS(=O)(=O)C2CCCCC2O)c(C)c1 (configuration not stated)
21.5 µg/mL

---

- Tested on: Botrytis cinerea
- testName: Fungicidal activity against Botryotinia fuckeliana grown on compound pre-treated cucumber leaves assessed as control efficiency against gray mold disease on leaves at 500 ug/mL
- Assay type: functional
Please respond with reported Efficacy for every item in the list.
Return type: number; implicit unit %.

Could you share which Efficacy value was measured for O=S(=O)(Nc1ccc(Cl)cc1C(F)(F)F)C1CCCCCC1O (stereo unspecified) ?
95.01

Can you check Cc1cc(C)nc(Nc2ccccc2)n1 [PYRIMETHANIL] next?
100

Same for O=C1CCCCCC1S(=O)(=O)Nc1ccc(Cl)cc1C(F)(F)F (stereo unspecified)
49.53

Here is the next compound: O=C1CCCCCCCCCCC1S(=O)(=O)Nc1ccc(Cl)cc1C(F)(F)F (stereo unspecified)
97.07

Then this compound: O=S(=O)(Nc1ccc(Cl)cc1C(F)(F)F)C1CCCC1O (stereo unspecified)
81.12

Similarly, O=C1CCCCCCC1S(=O)(=O)Nc1ccc(Cl)cc1C(F)(F)F (stereo unspecified) ?
67.72

---

- System: Botrytis cinerea
- testName: Fungicidal activity against Botryotinia fuckeliana assessed as inhibition of mycelial growth
- Format: functional, organism-based
observedProperty: log10 EC50 (log10 of the value in µg/mL)
Base-10 log of EC50, unit µg/mL.

# query: log10 EC50 | item O=C1CCCCCCCCCCC1S(=O)(=O)Nc1ccc(Cl)cc1C(F)(F)F (centres undefined) | system: Botrytis cinerea
0.29

Repeat with Cc1ccc(NS(=O)(=O)C2CCCCC2O)cc1 (centres undefined)
1.26

Let us now turn to O=S(=O)(Nc1ccc(Cl)cc1C(F)(F)F)C1CCCCCCCCCCC1O (centres undefined)
0.76

Now try COc1ccc(OC)c(NS(=O)(=O)C2CCCCC2O)c1 (centres undefined) .
1.35

Also, O=S(=O)(Nc1ccccc1F)C1CCCCC1O (centres undefined) please.
1.38

Here is the next molecule: O=S(=O)(Nc1cc(C(F)(F)F)ccc1C(F)(F)F)C1CCCCC1O (centres undefined)
0.40

Another molecule to check: CC12CC1(C)C(=O)N(c1cc(Cl)cc(Cl)c1)C2=O (centres undefined) [PROCYMIDONE]
0.00

Next record, please: O=S(=O)(Nc1ccccc1Cl)C1CCCCC1O (centres undefined)
1.88

Param item: O=C1CCCCCC1S(=O)(=O)Nc1ccc(Cl)cc1C(F)(F)F (centres undefined)
-0.10
